- systemTested: monkey GPC3-His protein (monkey)
- assayRemarks: ELISA, monkey GPC3-His coated; antibody 0.53 nM
Each entry below carries its reported OD450 nm.

binder	OD450 nm
hAb005LH2L1b (antibody, human IgG1, V domains shown) VH: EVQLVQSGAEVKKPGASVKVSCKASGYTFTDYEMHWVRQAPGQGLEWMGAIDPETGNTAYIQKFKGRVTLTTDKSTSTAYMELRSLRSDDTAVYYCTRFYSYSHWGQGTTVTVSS VL: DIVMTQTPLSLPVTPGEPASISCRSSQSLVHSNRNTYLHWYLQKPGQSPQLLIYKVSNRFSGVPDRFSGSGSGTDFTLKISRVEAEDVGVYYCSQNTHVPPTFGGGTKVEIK	1.25
hAb005LH3L1a (antibody, human IgG1, V domains shown) VH: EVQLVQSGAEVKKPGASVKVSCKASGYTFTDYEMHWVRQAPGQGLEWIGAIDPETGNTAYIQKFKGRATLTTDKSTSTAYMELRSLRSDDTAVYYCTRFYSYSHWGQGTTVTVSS VL: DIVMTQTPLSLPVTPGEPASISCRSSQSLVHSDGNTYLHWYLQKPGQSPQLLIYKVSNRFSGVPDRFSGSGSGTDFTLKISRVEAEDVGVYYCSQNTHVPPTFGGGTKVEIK	0.042
hAb003LH2L1a (antibody, human IgG1, V domains shown) VH: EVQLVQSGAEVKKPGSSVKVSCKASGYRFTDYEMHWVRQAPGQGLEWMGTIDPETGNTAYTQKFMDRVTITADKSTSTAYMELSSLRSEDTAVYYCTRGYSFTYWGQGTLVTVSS VL: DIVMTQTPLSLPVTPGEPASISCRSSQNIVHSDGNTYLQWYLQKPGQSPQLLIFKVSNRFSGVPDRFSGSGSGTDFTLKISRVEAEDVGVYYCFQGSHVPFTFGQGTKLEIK	2.12
hAb006LH1L1a (antibody, human IgG1, V domains shown) VH: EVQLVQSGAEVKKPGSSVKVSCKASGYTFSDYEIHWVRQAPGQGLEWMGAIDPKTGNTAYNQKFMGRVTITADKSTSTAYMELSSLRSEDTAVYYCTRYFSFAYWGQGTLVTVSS VL: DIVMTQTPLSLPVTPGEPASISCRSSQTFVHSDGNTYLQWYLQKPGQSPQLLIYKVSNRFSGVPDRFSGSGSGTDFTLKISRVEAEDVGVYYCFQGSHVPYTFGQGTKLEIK	0.917
hAb007LH2L1a (antibody, human IgG1, V domains shown) VH: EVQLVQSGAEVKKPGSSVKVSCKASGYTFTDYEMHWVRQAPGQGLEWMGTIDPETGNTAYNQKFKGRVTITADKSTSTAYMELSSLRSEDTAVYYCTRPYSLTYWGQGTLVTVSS VL: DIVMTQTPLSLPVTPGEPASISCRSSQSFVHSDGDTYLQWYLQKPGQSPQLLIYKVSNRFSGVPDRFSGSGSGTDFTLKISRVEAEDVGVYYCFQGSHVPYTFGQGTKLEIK	1.41
